Below is a list of entries, each paired with its recorded pIC50 value.
- target_of_assay: c-Met (cytoplasmic domain) (Homo sapiens, UniProt P08581)
- Construct: 10 ng/mL c-Met (cytoplasmic domain, Invitrogen Corporation #PV3143); purchased Invitrogen Corporation PV3143
- Sequence (P08581 956-1390 limits assumed): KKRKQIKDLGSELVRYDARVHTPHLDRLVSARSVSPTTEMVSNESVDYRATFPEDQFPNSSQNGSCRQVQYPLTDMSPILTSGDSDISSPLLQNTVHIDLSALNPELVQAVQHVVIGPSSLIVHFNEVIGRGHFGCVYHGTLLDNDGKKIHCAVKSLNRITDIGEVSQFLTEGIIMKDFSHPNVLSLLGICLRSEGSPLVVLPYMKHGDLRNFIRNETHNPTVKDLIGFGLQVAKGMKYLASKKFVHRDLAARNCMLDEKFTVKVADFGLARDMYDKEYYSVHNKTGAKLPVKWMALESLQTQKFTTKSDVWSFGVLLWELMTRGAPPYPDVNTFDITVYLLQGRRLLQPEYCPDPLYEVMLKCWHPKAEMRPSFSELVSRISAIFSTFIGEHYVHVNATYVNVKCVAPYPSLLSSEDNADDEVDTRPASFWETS
- test_summary: c-Met Kinase Assay (same methods as for ALK, with modifications)
- Type: biochemical
- cond: 1 μM ATP (Km level); read-out: cMet Activity (c-Met Kinase Inhibition, IC50)
pIC50: −log10 of the molar value.

## Task I'd like to know its pIC50. The compound in question is COc1c(Nc2ncc(Cl)c(Nc3ccccc3S(=O)(=O)C(C)C)n2)ccc2c1CCCC(NCCO)C2 (stereo not shown)
## Result < 5.00

## Task I'd like to know its pIC50. The compound in question is COc1c(Nc2ncc(Cl)c(Nc3ccccc3S(=O)(=O)N(C)C)n2)ccc2c1CCC(N1CCN(C)CC1)CC2 (stereo not shown)
## Result 5.00 to 6.00

## Task I'd like to know its pIC50. The compound in question is COc1cc2c(cc1Nc1ncc(Cl)c(Nc3cc(Cl)ccc3OC)n1)CCN(CC(C)(F)F)CC2
## Result < 5.00

## Task I'd like to know its pIC50. The compound in question is Cc1nnc(-c2ccccc2Nc2nc(Nc3ccc4c(c3)C(C)(C)CCC(=O)N4)ncc2Cl)s1
## Result 5.00 to 6.00

## Task I'd like to know its pIC50. The compound in question is COc1cc2c(cc1Nc1ncc(Cl)c(Nc3ccccc3-c3ncccc3C)n1)CCN(CC(=O)N(C)C)CC2
## Result < 5.00

## Task I'd like to know its pIC50. The compound in question is CNC(=O)c1ccccc1Nc1nc(Nc2ccc3c(c2)OCCNC3=O)ncc1Cl
## Result > 7.00

## Task I'd like to know its pIC50. The compound in question is CCN1C(=O)CCCc2c1ccc(Nc1ncc(Cl)c(Nc3ccc(OC)cc3C(=O)NC)n1)c2OC
## Result 5.00 to 6.00

###

- target_of_assay: c-Met (cytoplasmic domain) (Homo sapiens, UniProt P08581)
- Construct: 10 ng/mL c-Met (cytoplasmic domain, Invitrogen Corporation #PV3143); purchased Invitrogen Corporation PV3143
- test_summary: c-Met Kinase Assay (same methods as for ALK, with modifications)
- Format: biochemical
- cond: c-Met kinase inhibition, 1 μM ATP (Km level); read-out: cMet Activity
pIC50: −log10 of the molar value.
measure: pIC50

[[record]]
compound = "CNC(=O)c1ccccc1Nc1nc(Nc2ccc3c(c2)CCN(CC(F)(F)F)CC3)ncc1Cl"
measure = "pIC50"
meas_value = "> 7.00"


Now look at this entry.
## Task I'd like to know its pIC50. The compound in question is CCOC(=O)N1C2CCC1c1cc(C(=O)OC)cc(Nc3ncc(Cl)c(Nc4ccccc4C(=O)NC)n3)c1C2 (centres unmarked)
## Result 6.00 to 7.00

###

- target_of_assay: baculovirus-expressed ALK (Homo sapiens)
- Construct: host or cells: baculovirus expression system
- test_summary: ALK Kinase Assay (ELISA-type, time-resolved fluorescence)
- Type: biochemical
- cond: ALK kinase inhibition, 1 μM ATP; read-out: ALK Activity
Below is a list of entries, each paired with its recorded IC50 value.

Field: example entries. Status: answers known.
[[record]]
compound_structure_string = "CC(C)S(=O)(=O)c1cccc(F)c1Nc1nc(Nc2ccc3c(c2)-n2ccnc2CCC3)ncc1Cl"
measure = "IC50"
meas_value = "< 100 nM"

[[record]]
compound_structure_string = "CNC(=O)c1cccc(F)c1Nc1nc(Nc2ccc3c(c2)N(CCOC)C(=O)CCC3)ncc1Br"
measure = "IC50"
meas_value = "100 to 1000 nM"

[[record]]
compound_structure_string = "CNC(=O)c1cccc(F)c1Nc1nc(Nc2ccc3c(c2)OCCCN3C(=O)CN2CCCC2)ncc1Cl"
measure = "IC50"
meas_value = "100 to 1000 nM"

[[record]]
compound_structure_string = "CNC(=O)c1scc(C)c1Nc1nc(Nc2ccc3c(c2)NC(=O)CN(C)C3)ncc1Cl"
measure = "IC50"
meas_value = "100 to 1000 nM"

[[record]]
compound_structure_string = "CNC(=O)c1ccccc1Nc1nc(Nc2cc3c(cc2OC)N(C)C(=O)OCC3)ncc1Cl"
measure = "IC50"
meas_value = "< 100 nM"


## Task I'd like to know its IC50. The compound in question is CN1Cc2cc(Nc3ncc(Cl)c(Nc4ccccc4OCC#N)n3)ccc2CCC1=O
## Result < 100 nM

## Task I'd like to know its IC50. The compound in question is C#CCNC(=O)c1cccc(F)c1Nc1nc(Nc2ccc3c(c2)N(CC)CCCC3(C)C)ncc1Cl
## Result 100 to 1000 nM

## Task I'd like to know its IC50. The compound in question is CNC(=O)c1noc(C)c1Nc1nc(Nc2ccc3c(c2)CCOC(=O)N3C)ncc1Cl
## Result > 10000 nM

###

- target_of_assay: baculovirus-expressed ALK (Homo sapiens, UniProt Q9UM73)
- Construct: host or cells: baculovirus expression system
- Sequence (Q9UM73 19-1620): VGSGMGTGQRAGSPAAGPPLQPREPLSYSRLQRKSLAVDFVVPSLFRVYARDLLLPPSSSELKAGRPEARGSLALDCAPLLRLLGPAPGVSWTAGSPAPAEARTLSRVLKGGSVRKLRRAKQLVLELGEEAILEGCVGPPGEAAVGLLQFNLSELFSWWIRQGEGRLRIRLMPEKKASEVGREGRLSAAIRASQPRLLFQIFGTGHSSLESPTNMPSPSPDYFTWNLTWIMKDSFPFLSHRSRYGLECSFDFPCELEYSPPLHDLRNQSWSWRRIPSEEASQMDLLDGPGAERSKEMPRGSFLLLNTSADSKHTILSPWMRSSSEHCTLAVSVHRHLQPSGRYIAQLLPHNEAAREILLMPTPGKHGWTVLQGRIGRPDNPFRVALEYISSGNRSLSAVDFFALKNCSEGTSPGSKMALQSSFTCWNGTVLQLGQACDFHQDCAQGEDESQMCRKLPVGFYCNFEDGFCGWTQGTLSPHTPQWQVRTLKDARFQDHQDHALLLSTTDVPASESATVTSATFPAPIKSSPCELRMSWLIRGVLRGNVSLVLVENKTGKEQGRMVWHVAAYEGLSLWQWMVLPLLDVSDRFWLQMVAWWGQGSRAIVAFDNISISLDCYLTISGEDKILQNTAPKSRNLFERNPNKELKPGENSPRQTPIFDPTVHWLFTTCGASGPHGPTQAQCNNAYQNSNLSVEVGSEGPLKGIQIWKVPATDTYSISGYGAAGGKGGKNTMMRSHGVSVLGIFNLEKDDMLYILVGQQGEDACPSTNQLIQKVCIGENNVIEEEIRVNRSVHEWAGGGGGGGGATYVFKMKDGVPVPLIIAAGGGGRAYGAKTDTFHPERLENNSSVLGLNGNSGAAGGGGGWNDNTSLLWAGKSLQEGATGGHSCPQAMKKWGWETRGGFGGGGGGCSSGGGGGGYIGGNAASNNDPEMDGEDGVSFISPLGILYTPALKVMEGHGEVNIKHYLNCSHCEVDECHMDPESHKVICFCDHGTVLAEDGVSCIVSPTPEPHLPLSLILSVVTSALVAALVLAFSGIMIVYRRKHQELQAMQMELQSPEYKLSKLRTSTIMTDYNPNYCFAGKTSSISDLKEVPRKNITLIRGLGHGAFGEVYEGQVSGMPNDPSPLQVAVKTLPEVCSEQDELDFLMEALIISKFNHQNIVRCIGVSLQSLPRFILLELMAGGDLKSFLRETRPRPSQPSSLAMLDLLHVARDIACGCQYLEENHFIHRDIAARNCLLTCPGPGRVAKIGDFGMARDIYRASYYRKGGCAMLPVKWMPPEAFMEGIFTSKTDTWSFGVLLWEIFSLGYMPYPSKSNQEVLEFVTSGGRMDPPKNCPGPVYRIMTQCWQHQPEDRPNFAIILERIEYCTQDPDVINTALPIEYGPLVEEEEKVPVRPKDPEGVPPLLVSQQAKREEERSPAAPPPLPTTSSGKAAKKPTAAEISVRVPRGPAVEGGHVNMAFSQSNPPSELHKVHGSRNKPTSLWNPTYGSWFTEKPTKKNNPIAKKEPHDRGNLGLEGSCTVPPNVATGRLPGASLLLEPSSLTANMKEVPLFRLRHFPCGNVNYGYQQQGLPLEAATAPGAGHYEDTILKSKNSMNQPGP
- test_summary: ALK Kinase Assay (ELISA-type, time-resolved fluorescence)
- Assay type: biochemical
- cond: ALK kinase inhibition, 1 μM ATP (Km level); read-out: ALK Activity
measure: IC50

Field: example entries. Status: answers known.
[[record]]
compound = "CNC(=O)c1ccccc1Nc1nc(Nc2cc3c(cc2OC)CCN(CCOC)CC3)ncc1Cl"
meas_value = "< 100 nM"

[[record]]
compound = "CC1(C)CCC(=O)Nc2ccc(Nc3ncc(Cl)c(NC4C5C=CC(C5)C4C(N)=O)n3)cc21 (stereo not drawn)"
meas_value = "< 100 nM"

[[record]]
compound = "CNC(=O)c1ccccc1Nc1nc(Nc2ccc3c(c2)C2CC3CN(C(C)C)C2)ncc1Cl (stereo not drawn)"
meas_value = "< 100 nM"

[[record]]
compound = "CNC(=O)c1ccccc1Nc1nc(Nc2ccc3c(c2)CCN(S(C)(=O)=O)CC3)ncc1Cl"
meas_value = "< 100 nM"


## Task // fetch baculovirus-expressed ALK (Homo sapiens, UniProt Q9UM73) IC50 for CCN1CCc2cc(Nc3ncc(Cl)c(Nc4ccc(N5CCOCC5)cc4OC)n3)c(OC)cc2CC1=O
## Result < 100 nM

## Task // fetch baculovirus-expressed ALK (Homo sapiens, UniProt Q9UM73) IC50 for CCN1C(=O)CCCc2cc(Nc3ncc(Cl)c(N[C@@H]4[C@H]5CC[C@H](C5)[C@@H]4C(N)=O)n3)c(OC)cc21 (relative stereo)
## Result < 100 nM

## Task // fetch baculovirus-expressed ALK (Homo sapiens, UniProt Q9UM73) IC50 for COc1c(Nc2ncc(Cl)c(N[C@@H]3CCCC[C@H]3NS(C)(=O)=O)n2)ccc2c1C1CCC(C2)N1 (stereo partly drawn)
## Result 1000 to 10000 nM

## Task // fetch baculovirus-expressed ALK (Homo sapiens, UniProt Q9UM73) IC50 for CCN1CCc2ccc(Nc3ncc(Cl)c(N[C@@H]4CCCC[C@H]4O)n3)cc2CC1 (relative stereo)
## Result 100 to 1000 nM

## Task // fetch baculovirus-expressed ALK (Homo sapiens, UniProt Q9UM73) IC50 for CCN1C(=O)CCCc2ccc(Nc3ncc(Br)c(Nc4c(F)cccc4C(=O)NC)n3)cc21
## Result < 100 nM

###

- target_of_assay: baculovirus-expressed ALK (Homo sapiens, UniProt Q9UM73)
- Construct: host or cells: baculovirus expression system
- test_summary: ALK Kinase Assay (ELISA-type, time-resolved fluorescence)
- Format: biochemical
- cond: 1 μM ATP (Km level), 30 ng/ml ALK, 37° C., 15 minutes; read-out: ALK Activity (ALK kinase inhibition, IC50 class)
- Description: Briefly, each 96-well plate was coated with 100 μL/well of 10 μg/mL substrate (phospholipase C-γ) in Tris-buffered saline (TBS). […] The reaction was initiated by adding enzyme (30 ng/ml ALK) and was allowed to proceed at 37° C. for 15 minutes. Detection of the phosphorylated product was performed by adding 100 μl/well of Eu-N1 labeled PT66 antibody (Perkin Elmer # AD0041). Data analysis was performed using ActivityBase (IDBS, Guilford, UK). […]
pIC50: −log10 of the molar value.
measure: pIC50

[[record]]
compound = "COCCNC1CCc2cc(Nc3ncc(Cl)c(Nc4ccccc4S(=O)(=O)N4CCCC4)n3)c(OC)cc2CC1 (stereo not shown)"
measure = "pIC50"
meas_value = "> 7.00"


## Task I'd like to know its pIC50. The compound in question is CCNC(=O)c1ccccc1Nc1nc(Nc2c(OC)ccc3c2CC(=O)N(CC)CC3)ncc1Cl
## Result < 5.00

## Task I'd like to know its pIC50. The compound in question is COc1cccc(C(=O)NCC#N)c1Nc1nc(Nc2ccc3c(c2)C(C)(C)CCC(=O)N3)ncc1Cl
## Result 5.00 to 6.00

## Task I'd like to know its pIC50. The compound in question is CC(=O)N1CCC(=O)NCc2cc(Nc3ncc(Cl)c(Nc4c(C)cccc4OCC#N)n3)ccc21
## Result 6.00 to 7.00
